Ref: patent US20260028418A1

biological target: T1, HER2-ECD-Fc (human, UniProt P04626 23-652); assay: ELISA on HER2-ECD-Fc; antibody at 5 × 10^-5 µg/mL
T1 construct: extracellular domain; Produced in FreeStyle 293F cells; also called HER2-ECD Fc fusion protein

- binder: "hz2G10 (antibody, V domains shown, Humanized antibody, detected with anti-human IgG-HRP; Only the variable domains are tied to the name; also called humanized 2G10 antibody) VH: EVQLVESGGGLVQPGGSLRLSCAASGFTFSDYYMYWVRQAPGKGLEWVAYINSGGGSTYYPDTVKGRFTISRDNAKNSLYLQMNSLRAEDTAVYYCAREALYDYDYAMDYWGQGTTVTVSS VL: DIVMTQSPLSLSVTPGQPASISCKSSQSLLYSNGKTYLNWLLQKPGQSPQRLIYLVSKLDSGVPDRFSGSGSGTDFTLKISRVEAEDVGVYYCVQGTHFPLTFGGGTKVEIK"
  absorbance: 0.12
